Listed here: items and their measured koff.
Biological target: T1, Recombinant human CD4 (R&D Systems, Cat. 10327-CD) (human, UniProt P01730 26-390, limits assumed)
T1 construct: Bought soluble recombinant protein used as analyte at 100 nM; also called huCD4
Assay: BLI (Octet Red384), non-clonal supernatant on AMC sensor, 100 nM human CD4, 1:1 local fit;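 note: hybridoma antibodies captured from supernatant, single CD4 concentration as analyte, association and dissociation phases fitted together, giving single-point kinetic estimates per supernatant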

binder	readoutUnit	koff
75110_04H17A (antibody, V domains shown, Non-clonal AlivaMab Mouse Kappa hybridoma supernatant, captured by anti-mouse IgG Fc (human V regions, mouse Fc)) VH: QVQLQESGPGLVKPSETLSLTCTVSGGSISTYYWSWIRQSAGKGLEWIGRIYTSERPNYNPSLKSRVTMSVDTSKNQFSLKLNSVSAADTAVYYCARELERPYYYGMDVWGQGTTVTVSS VL: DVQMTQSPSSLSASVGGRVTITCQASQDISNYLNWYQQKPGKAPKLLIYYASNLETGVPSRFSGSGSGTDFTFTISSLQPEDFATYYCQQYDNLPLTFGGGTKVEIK	s⁻¹	0.00097
75110_02I18A (antibody, V domains shown, Non-clonal AlivaMab Mouse Kappa hybridoma supernatant, captured by anti-mouse IgG Fc (human V regions, mouse Fc)) VH: EVQVVESGGGLVQPGGSLRLSCAASGFTFSSYDMHWVRQATGKGLEWVSTIGTAGDTYYPGSVKGRFTISRENAKNSLYLQMNSLRAGDTAVYYCARGGYYYYGMDVWGQGTTVTVSS VL: EIVLTQSPGTLSLSPGERATLSCRASQSVSSSYLAWYQQKPGQSPRLLIHGASSRATGIPDRVSGSGSGTDFTLTISRLEPEDFAVYYCQQYGSSPFTFGPGTKVDIK	s⁻¹	0.0033
75110_02E22A (antibody, V domains shown, Non-clonal AlivaMab Mouse Kappa hybridoma supernatant, captured by anti-mouse IgG Fc (human V regions, mouse Fc)) VH: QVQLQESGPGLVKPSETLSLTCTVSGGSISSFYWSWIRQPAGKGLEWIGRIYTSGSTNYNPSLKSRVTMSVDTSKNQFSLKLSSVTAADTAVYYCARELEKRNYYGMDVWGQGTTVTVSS VL: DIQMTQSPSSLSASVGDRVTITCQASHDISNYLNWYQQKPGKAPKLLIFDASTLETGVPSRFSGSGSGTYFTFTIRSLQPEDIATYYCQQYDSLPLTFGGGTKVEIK	s⁻¹	0.0042
